target_system: human P2X3 receptor (Homo sapiens (Human))
Sequence (P56373 whole entry): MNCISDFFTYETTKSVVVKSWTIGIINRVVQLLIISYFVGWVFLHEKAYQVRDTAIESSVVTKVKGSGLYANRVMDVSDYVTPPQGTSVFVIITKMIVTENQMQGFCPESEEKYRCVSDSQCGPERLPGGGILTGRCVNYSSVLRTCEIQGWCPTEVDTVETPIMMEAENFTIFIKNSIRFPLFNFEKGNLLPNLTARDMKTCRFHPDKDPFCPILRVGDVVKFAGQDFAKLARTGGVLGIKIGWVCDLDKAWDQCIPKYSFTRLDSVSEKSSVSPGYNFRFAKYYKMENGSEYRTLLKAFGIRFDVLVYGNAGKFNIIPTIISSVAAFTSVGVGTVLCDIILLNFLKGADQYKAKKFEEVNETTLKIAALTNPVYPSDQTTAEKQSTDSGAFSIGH
assay_text: Intracellular calcium measurement (FLIPR, Fluo-4) of antagonist activity at human P2X3 receptors
Format: cell-based
experimental_conditions: read-out: hP2X3 IC50
# IC50 per entry
Numeric answer plus unit only.

Dear colleague, I am looking for the recorded IC50 of the following molecule: "Cc1cnc(-c2cc(OC[C@H]3CN(C)CCO3)cc(C(=O)N[C@@H](C)c3cnc(C(F)(F)F)nc3)c2)s1"
227 nM

Dear colleague, I am looking for the recorded IC50 of the following molecule: "Cc1ncc([C@@H](C)NC(=O)c2cc(O[C@H]3CCOC3)cc(-c3ncc(C)s3)c2)cn1"
74 nM

Next:
Dear colleague, I am looking for the recorded IC50 of the following molecule: "Cc1cnc(-c2cc(OC3CCN(C)CC3)cc(C(=O)N[C@H](C)c3cnc(C(F)F)nc3)c2)s1"
16 nM

Dear colleague, I am looking for the recorded IC50 of the following molecule: "Cc1ccc([C@@H](C)NC(=O)c2cc(OC[C@H]3CCCO3)cc(-c3ncc(C(C)C)s3)c2)nn1"
28 nM

Dear colleague, I am looking for the recorded IC50 of the following molecule: "CCc1cnc(-c2cc(O[C@H]3CN4CCC3CC4)cc(C(=O)N[C@H](C)c3cnc(C(F)(F)F)nc3)c2)s1"
11 nM

Dear colleague, I am looking for the recorded IC50 of the following molecule: "CCc1cnc(-c2cc(OC[C@@H]3CCCO3)cc(C(=O)N[C@H](C)c3cnc(C)cn3)c2)s1"
10 nM

Dear colleague, I am looking for the recorded IC50 of the following molecule: "Cc1cnc(-c2cc(OC3CCN(CC(F)F)CC3)cc(C(=O)N[C@H](C)c3cnc(C(F)(F)F)nc3)c2)s1"
7 nM
